# System: OVCAR-4 ovarian
# method: NCI tumour cell line growth inhibition, 48 h; in the data active = GI50 below about 0.43 µM; inactive = the rest
Thanks in advance; please answer with one of these: yes (1) = active, no (0) = inactive

Incoming: Hi, do you know how CSc1ccc(C2=Nn3c(nnc3-c3ccc(F)c(Cl)c3)SC2)cc1 came out in this test?
Outgoing: no (0)

Incoming: What do we get for C[C@]12CC[C@@H]3c4ccc(O)c([N+](=O)[O-])c4CC[C@H]3[C@@H]1CC[C@@H]2NS(=O)(=O)c1ccc(C(F)(F)F)cc1 ?
Outgoing: no (0)

Incoming: // next record COc1ccc(Cl)cc1Nc1nc(C(F)(F)F)ccc1C(=O)NN
Outgoing: no (0)

Incoming: And what about the compound C/C(=N\O)c1ccc(Nc2cc(-n3nnc4ccccc43)nc3ccccc23)cc1 ?
Outgoing: no (0)

Incoming: Let us now turn to Cc1ccc(C(=O)Nc2ccc(CN3CCN(C)CC3)c(C(F)(F)F)c2)cc1C#Cc1cnc(N)c2ccc(F)cc12
Outgoing: yes (1)

Incoming: Repeat for the following compound: Clc1ccc([O][In]([O]c2ccc(Cl)cn2)[O]c2ccc(Cl)cn2)nc1
Outgoing: no (0)

Incoming: # repeat for O=C1/C(=C/c2ccc(Cl)cc2)CCCc2ccc(F)cc21
Outgoing: no (0)

Incoming: Same question, O=C(Nc1ccc(OC(F)(F)F)cc1)c1sccc1NCc1ccnc2ccccc12 this time
Outgoing: no (0)

Incoming: What do you get for CCOC(=O)c1c(NC(=O)c2ccc(C(C)C)cc2)sc2c(CN(C)C)c(O)ccc12 ?
Outgoing: no (0)

Incoming: Same for CC[O-].CC[O-].O=C1C(=C([O-])c2ccccc2)C(=O)c2ccccc21.O=C1C(=C([O-])c2ccccc2)C(=O)c2ccccc21.[Ti+4]
Outgoing: no (0)
